Target: KPC-6 (Klebsiella pneumoniae, UniProt Q9F663, V239G)
Sequence (Q9F663 25-293 V239G): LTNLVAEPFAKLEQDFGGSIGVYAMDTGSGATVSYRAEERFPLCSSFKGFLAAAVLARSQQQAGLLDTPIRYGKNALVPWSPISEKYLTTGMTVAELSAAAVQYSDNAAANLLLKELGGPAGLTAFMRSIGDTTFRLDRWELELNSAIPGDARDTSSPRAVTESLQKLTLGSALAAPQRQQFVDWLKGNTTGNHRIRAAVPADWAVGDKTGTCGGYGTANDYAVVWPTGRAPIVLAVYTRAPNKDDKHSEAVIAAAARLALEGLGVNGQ
Test: biochemical
Form field: Ki (one value per entry).
Answer with a number only, understood to be in nM.

                                 smiles_str                               system_name  reported_value
0  O=C(O)C[C@@H]1CC[C@H](NC(=O)Cc2cccs2)B(O)O1  KPC-6 (Klebsiella pneumoniae, UniProt Q9F663, V239G)             109

Query :: # lookup: Ki of C[C@]1(Cn2ccnn2)[C@H](C(=O)O)N2C(=O)C[C@H]2S1(=O)=O
Result :: 79.9

* * *

Tested on: Enterobacterales
Assay: MIC, broth microdilution, CDC/FDA Antibiotic Resistance Isolate Bank (Example 7, Tables 8, 11, 12)
Type: cell-based
Conditions: Escherichia coli, KUB No. 5647, AR Bank # 150; read-out: MIC
Form field: MIC (one value per entry).
Answer with a number only, understood to be in µg/mL.

Some molecules with recorded MIC:
smiles.str	unit.tag	MIC
C[C@H]1[C@H](NC(=O)/C(=N\OC(C)(C)C(=O)O)c2csc(N)n2)C(=O)N1S(=O)(=O)O	µg/mL	32
NCC[C@H](O)C(=O)N[C@@H]1C[C@H](N)[C@@H](O[C@H]2O[C@H](CN)[C@@H](O)[C@H](O)[C@H]2O)[C@H](O)[C@H]1O[C@H]1O[C@H](CO)[C@@H](O)[C@H](N)[C@H]1O	µg/mL	0.5
CC(C)(O/N=C(\C(=O)N[C@@H]1C(=O)N2C(C(=O)[O-])=C(C[N+]3(CCNC(=O)c4ccc(O)c(O)c4Cl)CCCC3)CS[C@H]12)c1csc(N)n1)C(=O)O	µg/mL	4

Here's the next entry for you.
Query :: Param readout= MIC; system= Enterobacterales; entry= C[C@H]1COc2c(N3CCN(C)CC3)c(F)cc3c(=O)c(C(=O)O)cn1c23 ; returns value.
Result :: 32

* * *

Form field: MIC (one value per entry).
Test system: A. baumannii
Assay: MIC, broth microdilution, CDC/FDA Antibiotic Resistance Isolate Bank (Example 7, Tables 9, 13, 14)
Format: cell-based, Acinetobacter baumannii
Settings: Acinetobacter baumannii, A. baumannii KUB No. 5707, AR Bank #274; OXA-66, OXA-72; read-out: MIC

Query :: # lookup: MIC of O=C(O)c1cn(C2CC2)c2cc(N3CCNCC3)c(F)cc2c1=O
Result :: > 64 µg/mL

Query :: Try this molecule next: NCC[C@H](O)C(=O)N[C@@H]1C[C@H](N)[C@@H](O[C@H]2O[C@H](CN)[C@@H](O)[C@H](O)[C@H]2O)[C@H](O)[C@H]1O[C@H]1O[C@H](CO)[C@@H](O)[C@H](N)[C@H]1O
Result :: 16 µg/mL

* * *

Test system: Enterobacterales
Assay: MIC, broth microdilution, CDC/FDA Antibiotic Resistance Isolate Bank (Example 7, Tables 8, 11, 12)
Format: cell-based
Conditions: Providencia rettgeri, KUB No. 5579, AR Bank # 82; read-out: MIC
result.type: MIC

Some compounds with recorded MIC:
smiles.str	MIC
CC(C)(O/N=C(\C(=O)N[C@@H]1C(=O)N2C(C(=O)[O-])=C(C[N+]3(CCNC(=O)c4ccc(O)c(O)c4Cl)CCCC3)CS[C@H]12)c1csc(N)n1)C(=O)O	≤ 0.06 µg/mL
NCC[C@H](O)C(=O)N[C@@H]1C[C@H](N)[C@@H](O[C@H]2O[C@H](CN)[C@@H](O)[C@H](O)[C@H]2O)[C@H](O)[C@H]1O[C@H]1O[C@H](CO)[C@@H](O)[C@H](N)[C@H]1O	1 µg/mL
O=C(O)c1cn(C2CC2)c2cc(N3CCNCC3)c(F)cc2c1=O	0.06 µg/mL
CO/N=C(\C(=O)N[C@@H]1C(=O)N2C(C(=O)[O-])=C(C[n+]3ccn4ncccc43)CS[C@H]12)c1nsc(N)n1	16 µg/mL

Here's the next entry for you.
Query :: # lookup: MIC of C[C@H]1[C@H](NC(=O)/C(=N\OC(C)(C)C(=O)O)c2csc(N)n2)C(=O)N1S(=O)(=O)O
Result :: ≤ 0.03 µg/mL

* * *

System: P. aeruginosa
Experiment: MIC, broth microdilution, CDC/FDA Antibiotic Resistance Isolate Bank (Example 7, Tables 10, 15)
Assay type: cell-based
Conditions: Pseudomonas aeruginosa, P. aeruginosa KUB No. 5687, AR Bank # 254; read-out: MIC
Form field: MIC (one value per entry).

Some molecules with recorded MIC:
molecule	system.name	MIC
NCC[C@H](O)C(=O)N[C@@H]1C[C@H](N)[C@@H](O[C@H]2O[C@H](CN)[C@@H](O)[C@H](O)[C@H]2O)[C@H](O)[C@H]1O[C@H]1O[C@H](CO)[C@@H](O)[C@H](N)[C@H]1O [Amikacin, amikacin]	P. aeruginosa	> 64 µg/mL
CC(C)(O/N=C(\C(=O)N[C@@H]1C(=O)N2C(C(=O)[O-])=C(C[N+]3(CCNC(=O)c4ccc(O)c(O)c4Cl)CCCC3)CS[C@H]12)c1csc(N)n1)C(=O)O [Cefiderocol, cefiderocol]	P. aeruginosa	0.5 µg/mL
C[C@H]1[C@H](NC(=O)/C(=N\OC(C)(C)C(=O)O)c2csc(N)n2)C(=O)N1S(=O)(=O)O [Aztreonam, aztreonam]	P. aeruginosa	4 µg/mL
CO/N=C(\C(=O)N[C@@H]1C(=O)N2C(C(=O)[O-])=C(C[n+]3ccn4ncccc43)CS[C@H]12)c1nsc(N)n1 [Cefozopran, cefozopran]	P. aeruginosa	> 64 µg/mL

Here's the next entry for you.
Query :: Param readout= MIC; system= P. aeruginosa; entry= C[C@H]1COc2c(N3CCN(C)CC3)c(F)cc3c(=O)c(C(=O)O)cn1c23 [Levofloxacin, levofloxacin] ; returns value.
Result :: 16 µg/mL

* * *

System: Enterobacterales
Assay: MIC, broth microdilution, CDC/FDA Antibiotic Resistance Isolate Bank (Example 7, Tables 8, 11, 12)
Assay type: cell-based
Details: Klebsiella pneumoniae, Klebsiella pneumoniae KUB No. 5830, AR Bank #525; read-out: MIC
result.type: MIC (µg/mL)
Answer with a number only, understood to be in µg/mL.

smiles.str	MIC / µg/mL
C[C@H]1COc2c(N3CCN(C)CC3)c(F)cc3c(=O)c(C(=O)O)cn1c23	64
CO/N=C(\C(=O)N[C@@H]1C(=O)N2C(C(=O)[O-])=C(C[n+]3ccn4ncccc43)CS[C@H]12)c1nsc(N)n1	32
NCC[C@H](O)C(=O)N[C@@H]1C[C@H](N)[C@@H](O[C@H]2O[C@H](CN)[C@@H](O)[C@H](O)[C@H]2O)[C@H](O)[C@H]1O[C@H]1O[C@H](CO)[C@@H](O)[C@H](N)[C@H]1O	32

Here's the next entry for you.
Query :: Param readout= MIC; system= Enterobacterales; entry= CC(C)(O/N=C(\C(=O)N[C@@H]1C(=O)N2C(C(=O)[O-])=C(C[N+]3(CCNC(=O)c4ccc(O)c(O)c4Cl)CCCC3)CS[C@H]12)c1csc(N)n1)C(=O)O ; returns value.
Result :: 2

* * *

Tested on: A. baumannii
Assay: MIC, broth microdilution, CDC/FDA Antibiotic Resistance Isolate Bank (Example 7, Tables 9, 13, 14)
Format: cell-based, Acinetobacter baumannii
Settings: Acinetobacter baumannii, A. baumannii KUB No. 5713, AR Bank #280; OXA-66; read-out: MIC
result.type: MIC (µg/mL)
Answer with a number only, understood to be in µg/mL.

Some compounds with recorded MIC:
smiles.str	result.type	unit.tag	reported.value
CN(C)c1cc(NC(=O)CNC(C)(C)C)c(O)c2c1C[C@H]1C[C@H]3[C@H](N(C)C)C(O)=C(C(N)=O)C(=O)[C@@]3(O)C(O)=C1C2=O	MIC	µg/mL	1
CC(C)(O/N=C(\C(=O)N[C@@H]1C(=O)N2C(C(=O)[O-])=C(C[N+]3(CCNC(=O)c4ccc(O)c(O)c4Cl)CCCC3)CS[C@H]12)c1csc(N)n1)C(=O)O	MIC	µg/mL	0.25
CO/N=C(\C(=O)N[C@@H]1C(=O)N2C(C(=O)[O-])=C(C[n+]3ccn4ncccc43)CS[C@H]12)c1nsc(N)n1	MIC	µg/mL	8

Here's the next entry for you.
Query :: # lookup: MIC of NCC[C@H](O)C(=O)N[C@@H]1C[C@H](N)[C@@H](O[C@H]2O[C@H](CN)[C@@H](O)[C@H](O)[C@H]2O)[C@H](O)[C@H]1O[C@H]1O[C@H](CO)[C@@H](O)[C@H](N)[C@H]1O
Result :: 4

* * *

Form field: MIC (one value per entry).
System: P. aeruginosa
Experiment: MIC, broth microdilution, CDC/FDA Antibiotic Resistance Isolate Bank (Example 7, Tables 10, 15)
Assay type: cell-based
Conditions: Pseudomonas aeruginosa, P. aeruginosa KUB No. 5597, AR Bank # 100; read-out: MIC

Some molecules with recorded MIC:
smiles.str	system.name	result.type	reported.value
C[C@H]1COc2c(N3CCN(C)CC3)c(F)cc3c(=O)c(C(=O)O)cn1c23	P. aeruginosa	MIC	> 64 µg/mL
C[C@H]1[C@H](NC(=O)/C(=N\OC(C)(C)C(=O)O)c2csc(N)n2)C(=O)N1S(=O)(=O)O	P. aeruginosa	MIC	32 µg/mL

Query :: # lookup: MIC of NCC[C@H](O)C(=O)N[C@@H]1C[C@H](N)[C@@H](O[C@H]2O[C@H](CN)[C@@H](O)[C@H](O)[C@H]2O)[C@H](O)[C@H]1O[C@H]1O[C@H](CO)[C@@H](O)[C@H](N)[C@H]1O
Result :: > 64 µg/mL

Origin of values: patent EP4635500A1
